tested on: human PBMCs; experiment: Human PBMC cytokine response assay (IFN-γ and IFN-α in cell-free medium by ELISA), with or without cPLGA; format: cell-based; settings: Example 59; 4 ug/ml; donor 177
What IFN-α was measured for each of the following?
Your answer should be a plain number; it is taken to be in pg/mL.

Look up IFN-α with human PBMCs for this substance: (5′-TCGACGT-HEG)2-glycerol-HEG-5′-ACTTAGAGGTTCAGTAGG-3′ (SEQ ID NO: 157) (DNA, all phosphorothioate, methylation of C not given here; Two heptamer DNA arms joined by HEG spacers and glycerol branching to the chain) [Compound C-202]
2482

Could you share what IFN-α was measured for (5′-TCGACGT-HEG)2-glycerol-HEG-5′-CCTACTGAACCTCTAAGT-3′ (SEQ ID NO: 158) (DNA, all phosphorothioate, methylation of C not given here; Two heptamer DNA arms joined by HEG spacers and glycerol branching to the chain) [Compound C-203] , tested on human PBMCs?
487

Entry (5′-TCGACGT-HEG)2-glycerol-HEG-5′-TTGGCCAAGCTTGGCCAA (SEQ ID NO: 116) (DNA, all phosphorothioate, methylation of C not given here; Two heptamer DNA arms joined by HEG spacers and glycerol branching to the chain) [Compound C-178] , system human PBMCs: what IFN-α was measured?
8304

* * *

tested on: human PBMCs; experiment: Human PBMC cytokine response assay (IFN-γ and IFN-α in cell-free medium by ELISA), with or without cPLGA; assay type: cell-based; details: Table 11; donor 28042
Strand notation (5' to 3'): a small letter for the sugar, then the base; units joined by * are phosphorothioate-linked, units joined directly phosphodiester-linked; [ ] holds rarer units or linkages, { } end groups; capitals alone tell only the bases. d = 2'-deoxy (DNA)
recorded endpoint: IFN-α (pg/mL)
Form entry: value (pg/mL) — number only.

Suppose we examine the substance 5′-TCGTCGA-3′-HEG-5′-ACGTTCG-3′-HEG-5′-AGATGAT-3′ [Compound C-8] ; what IFN-α value has been reported?
78

# query: IFN-α of entry 5′-GsGs-3′-C3-5′-TGC-3′-C3-5′-ATCGAT-3′-C3-5′-GCA-3′-C3-5′-GGsGsGsGsG-3′ (s = phosphorothioate linkages, otherwise linkages are phosphodiester) [Compound C-84]
0

Value lookup for IFN-α; key = 5′-TCGTCGA-3′-HEG-5′-ACGTTCG-3′-HEG-5′-GGGGGG-3′ [Compound C-49]
30

Using the record for 5′-TCGTCGA-3′-HEG-5′-TCGTCGA-3′-HEG-5′-TCGTCGA-3′ [Compound C-21] , report its IFN-α.
146

Reported IFN-α for 5′-TCGTCGA-3′- C3-5′-ACGTTCG-3′-C3-5′-AGATGAT-3′ [Compound C-9] : what is it?
39

Item 5′-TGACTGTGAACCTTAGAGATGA-3′ (SEQ ID NO: 3) (dT*dG*dA*dC*dT*dG*dT*dG*dA*dA*dC*dC*dT*dT*dA*dG*dA*dG*dA*dT*dG*dA) [Compound P-7, negative control, reference compound] has what recorded IFN-α?
0

* * *

tested on: human PBMCs; test: Human PBMC cytokine response assay (IFN-γ and IFN-α in cell-free medium by ELISA), with or without cPLGA; type: cell-based; conditions: Table 24; donor 28236
recorded endpoint: IFN-γ (pg/mL)
Report the value in pg/mL with no unit label.

Kindly state the measured IFN-γ obtained for (5′-TCGTCGA-3′-HEG)2-glycerol-HEG-5′-AACGTTC-3′-HEG-5′-TCGACGT-3′ [Compound C-100] with human PBMCs.
490

Form entry - test system: human PBMCs; read-out: IFN-γ; substance: (5′-TCGTCGA-3′-C3)2-glycerol-C3-5′-TCGTCGA-3′ [Compound C-104]
87

Lookup: IFN-γ / human PBMCs / (5′-TCGTCGA-3′)2-glycerol-5′-TCGTCGA-3′ [Compound C-28]
88

# returns recorded IFN-γ (system: human PBMCs) for 5′-TCGTCGA-3′-HEG-5′-TCGTCGA-3′-HEG-5′-TCGTCGA-3′ [Compound C-21]
308

* * *

tested on: human PBMCs; assay: Human PBMC cytokine response assay (IFN-γ and IFN-α in cell-free medium by ELISA), with or without cPLGA; format: cell-based; conditions: Example 59; 20 ug/ml; donor 48
Strand notation (5' to 3'): a small letter for the sugar, then the base; units joined by * are phosphorothioate-linked, units joined directly phosphodiester-linked; [ ] holds rarer units or linkages, { } end groups; capitals alone tell only the bases. d = 2'-deoxy (DNA)
recorded endpoint: IFN-α (pg/mL)
Lab book: enter the figure in pg/mL, no units written.

Would you mind telling me what IFN-α value was observed for 5′-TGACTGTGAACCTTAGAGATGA-3′ (SEQ ID NO: 3) (dT*dG*dA*dC*dT*dG*dT*dG*dA*dA*dC*dC*dT*dT*dA*dG*dA*dG*dA*dT*dG*dA) [Compound P-7, negative control, reference compound] ?
102

Return reported IFN-α; argument: (5′-TCGACGT-HEG)2-glycerol-HEG-5′-TTGGCCAAGCTTGGCCAA (SEQ ID NO: 116) (DNA, all phosphorothioate, methylation of C not given here; Two heptamer DNA arms joined by HEG spacers and glycerol branching to the chain) [Compound C-178]
13946

# input substance: (5′-TCGACGT-3′-HEG)2-glycerol-HEG-5′-TCGACGT-3′ [Compound C-101] ; wanted: its IFN-α
2212

What value of IFN-α has been recorded for this entry: (5′-TAGTCAT-3′-HEG)2-glycerol-HEG-5′-AACCTTC-3′ [Compound M-3, reference compound]
102

State the recorded IFN-α for this entry: (5′-TCGACGT-HEG)2-glycerol-HEG-5′-ACTTAGAGGTTCAGTAGG-3′ (SEQ ID NO: 157) (DNA, all phosphorothioate, methylation of C not given here; Two heptamer DNA arms joined by HEG spacers and glycerol branching to the chain) [Compound C-202]
1901

Item under review: (5′-TCGACGT-HEG)2-glycerol-HEG-5′-CCTACTGAACCTCTAAGT-3′ (SEQ ID NO: 158) (DNA, all phosphorothioate, methylation of C not given here; Two heptamer DNA arms joined by HEG spacers and glycerol branching to the chain) [Compound C-203] . Reported IFN-α?
735

* * *

Task for the reader: assign each of the following substances its reported IFN-α.
test system: human PBMCs; assay: Human PBMC cytokine response assay (IFN-γ and IFN-α in cell-free medium by ELISA), with or without cPLGA; type: cell-based; conditions: Table 9; donor 28090
Strand notation (5' to 3'): a small letter for the sugar, then the base; units joined by * are phosphorothioate-linked, units joined directly phosphodiester-linked; [ ] holds rarer units or linkages, { } end groups; capitals alone tell only the bases. d = 2'-deoxy (DNA)
Response body: numeric value in pg/mL, unit text excluded.

Param item = 5′-TCGTCGA-3′-HEG-5′-TCGTCGA-3′-HEG-5′-TCGTCGA-3′ [Compound C-21] ; retrieve measured IFN-α.
157

Can you look up the measured IFN-α of 5′-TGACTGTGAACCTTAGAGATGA-3′ (SEQ ID NO: 3) (dT*dG*dA*dC*dT*dG*dT*dG*dA*dA*dC*dC*dT*dT*dA*dG*dA*dG*dA*dT*dG*dA) [Compound P-7, negative control, reference compound] for me?
27

// IFN-α lookup, key: HEG-5′-TCGTCG-3′-HEG-5′-ACGTTCG-3′-HEG-5′-AGATGAT-3′-TEG [Compound C-30]
29

Look at this substance and give its reported IFN-α. 5′-TCGTCGA-3′-C3-5′-TCGTCGA-3′-C3-5′-TCGTCGA-3′ all phosphorothioate linkages [Compound C-33]
22

* * *

Give IFN-α for every item shown.
test system: human PBMCs; test: Human PBMC cytokine response assay (IFN-γ and IFN-α in cell-free medium by ELISA), with or without cPLGA; assay type: cell-based; conditions: Example 58; 0.8 ug/ml; donor 3
Strand notation (5' to 3'): a small letter for the sugar, then the base; units joined by * are phosphorothioate-linked, units joined directly phosphodiester-linked; [ ] holds rarer units or linkages, { } end groups; capitals alone tell only the bases. d = 2'-deoxy (DNA)
Expressed in pg/mL, but write only the number.

Can you look up the measured IFN-α of (5′-TCGAACGTTCGA-3′ (SEQ ID NO: 155)-HEG)3-trebler-HEG-5′-T-3′ (three copies HEG-trebler branched, HEG-T, chemistry not fully specified) [Compound C-175] for me?
851

What measured IFN-α goes with 5′-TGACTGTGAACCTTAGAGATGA-3′ (SEQ ID NO: 3) (dT*dG*dA*dC*dT*dG*dT*dG*dA*dA*dC*dC*dT*dT*dA*dG*dA*dG*dA*dT*dG*dA) [Compound P-7, negative control, reference compound] ?
52
